target: EGFR mutation Ba/F3 stable cell line DEL19/T790M/C797S (Homo sapiens, UniProt P00533, DEL746-750/T790M/C797S, cells depend on it); construct: "del19, #32062; del19+T790M, #32072); experiment: Cancer cell growth inhibitory effect (MTT assay); type: cell-based, Murine; conditions: 72 hours, read-out: DEL19/T790M/C797S cell growth inhibition IC50
Sequence (P00533 with tags, fused parts or gaps DEL746-750/T790M/C797S): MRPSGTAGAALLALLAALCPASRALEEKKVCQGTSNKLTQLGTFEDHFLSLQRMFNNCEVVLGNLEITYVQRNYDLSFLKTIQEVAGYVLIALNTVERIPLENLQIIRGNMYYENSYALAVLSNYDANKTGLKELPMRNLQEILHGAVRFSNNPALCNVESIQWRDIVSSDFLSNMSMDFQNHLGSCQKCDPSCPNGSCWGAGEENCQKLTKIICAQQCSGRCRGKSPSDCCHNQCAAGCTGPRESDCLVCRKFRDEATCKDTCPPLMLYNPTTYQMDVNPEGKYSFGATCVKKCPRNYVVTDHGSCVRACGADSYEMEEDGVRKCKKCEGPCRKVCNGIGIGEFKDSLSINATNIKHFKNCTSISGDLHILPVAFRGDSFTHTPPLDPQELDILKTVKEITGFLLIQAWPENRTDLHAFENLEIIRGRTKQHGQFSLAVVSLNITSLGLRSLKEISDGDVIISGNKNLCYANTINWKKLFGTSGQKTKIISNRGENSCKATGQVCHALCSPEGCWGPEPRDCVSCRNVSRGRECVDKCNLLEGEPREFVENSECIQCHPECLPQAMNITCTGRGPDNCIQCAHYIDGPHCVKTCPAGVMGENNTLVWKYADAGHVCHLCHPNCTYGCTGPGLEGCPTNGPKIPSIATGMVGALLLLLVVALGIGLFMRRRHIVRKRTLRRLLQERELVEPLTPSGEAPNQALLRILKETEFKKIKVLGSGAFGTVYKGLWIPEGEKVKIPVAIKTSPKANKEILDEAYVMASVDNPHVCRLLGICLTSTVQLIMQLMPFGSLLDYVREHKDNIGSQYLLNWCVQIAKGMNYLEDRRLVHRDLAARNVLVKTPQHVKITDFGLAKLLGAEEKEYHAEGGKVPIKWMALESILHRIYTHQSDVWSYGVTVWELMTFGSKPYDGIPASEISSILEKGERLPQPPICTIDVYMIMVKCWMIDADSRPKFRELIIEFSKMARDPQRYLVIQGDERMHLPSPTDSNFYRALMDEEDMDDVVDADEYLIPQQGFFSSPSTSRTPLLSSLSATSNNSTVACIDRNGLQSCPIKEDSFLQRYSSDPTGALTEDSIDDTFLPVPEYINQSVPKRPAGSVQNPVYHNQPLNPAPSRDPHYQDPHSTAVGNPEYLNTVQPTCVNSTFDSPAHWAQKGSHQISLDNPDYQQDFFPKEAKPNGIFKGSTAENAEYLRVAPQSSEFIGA
parameter: IC50

INSERT INTO measurements (input_smiles, observed_measurement) VALUES
  ('COc1cc(N2CCSCC2)c(-c2cnn(C)c2)cc1Nc1ncc(Cl)c(Nc2ccccc2N(C)S(C)(=O)=O)n1', '< 100 nM'),
  ('COc1cc(N2CC3(CN(C)C3)C2)c(-c2cnn(C)c2)cc1Nc1ncc(Cl)c(Nc2ccccc2NS(C)(=O)=O)n1', '50 to 100 nM'),
  ('COc1cc(N2CCOCC2)c(-c2cnn(C)c2)cc1Nc1ncc(Cl)c(Nc2ccccc2N(C)S(C)(=O)=O)n1', '< 100 nM'),
  ('COc1cc(N2CC3(CN(C)C3)C2)c(-c2cnn(C)c2)cc1Nc1ncc(Cl)c(Nc2ccccc2N(C)S(C)(=O)=O)n1', '50 to 100 nM'),
  ('COc1cc(N2CCN(C)CC2)c(-c2cnn(C)c2)cc1Nc1ncc(Cl)c(Nc2ccccc2N(C)S(C)(=O)=O)n1', '50 to 100 nM'),
  ('COc1cc(N2CC3(COC3)C2)c(-c2cnn(C)c2)cc1Nc1ncc(Cl)c(Nc2ccccc2N(C)S(C)(=O)=O)n1', '< 100 nM'),
  ('COc1cc(N2CCSCC2)c(-c2cnn(C)c2)cc1Nc1ncc(Cl)c(Nc2ccccc2NS(C)(=O)=O)n1', '< 100 nM'),
  ('COc1cc(N2CC3(COC3)C2)c(-c2cnn(C)c2)cc1Nc1ncc(Cl)c(Nc2ccccc2NS(C)(=O)=O)n1', '< 100 nM'),
  ('COc1cc(N2CCN(C)CC2)c(-c2cnn(C)c2)cc1Nc1ncc(Cl)c(Nc2ccccc2NS(C)(=O)=O)n1', '50 to 100 nM');
